Reported inhibition values are given for each entry in this list.
# ASSAYED SYSTEM: Lethal factor (Bacillus anthracis)
# TEST DETAILS: Lethal factor protease inhibitors, Bacillus anthracis, multiplex microsphere cleavage assay, validation set (AID 588461)
# CONDITION INFO: flow cytometry, at 10 µM, hits give high values

COMPOUND	inhibition (%)
COc1ccccc1C(=O)Oc1ccc2c(c1)O/C(=C\c1ccncc1)C2=O	-8.2
Cc1ccc(C2CC(=O)C(C=NCCN3CCN(CC(=O)Nc4cc(C)cc(C)c4)CC3)=C(O)C2)cc1 (stereo not drawn)	0.4
CCOc1ncnc2c1[nH]c1ccccc12	-0.4
COc1ccc2oc(-c3ccco3)cc(=O)c2c1	-7
CCCCC(=O)O[C@H]1CC[C@H]2[C@@H]3CCc4cc(O)ccc4[C@H]3CC[C@]12C	-1.7
CC(C)[N+]1(C)[C@@H]2CC[C@H]1CC(OC(=O)C(CO)c1ccccc1)C2 (stereo partly drawn)	-3
OC(C#CCN1CCCC1)(c1ccccc1)c1cccnc1 (stereo not drawn)	-1.1
CC1COc2c(N3CCN(C)CC3)c(F)cc3c(=O)c(C(=O)O)cn1c23 (stereo not drawn)	3.1
Cn1nc(-c2ccc(Cl)cc2)nc2c(=O)n(C)c(=O)nc1-2	3.7
CC1(C)S[C@@H]2[C@H](NC(=O)C(C(=O)O)c3ccccc3)C(=O)N2[C@H]1C(=O)O (stereo partly drawn)	-6.1
O=C(c1ccc(-c2ccccc2)c(F)c1)C1CCCN(C(=O)c2cncs2)C1 (stereo not drawn)	1.6
c1ccc(Cn2nnc3cnccc32)cc1	1.4
COc1ccc2cc(C3(C)NC(=O)NC3=O)ccc2c1 (stereo not drawn)	0.8
CCN(CC)CCOC(=O)C(c1ccccc1)c1ccccc1	-3.7
COc1cc(CNCc2ccc(OC)c(OC)c2OC)cc(OC)c1	5.3
CN(CCO)CC(O)Cn1cnc2c1c(=O)n(C)c(=O)n2C (stereo not drawn) (tested in a mixture with another compound)	-3.6
CC(=O)c1cn(C)c(=O)[nH]c1=O	-0.5
CCOc1cc2c3c(c1)C(C)=CC(C)(C)N3C(=O)C2=O	-4
Cn1c2[n+](c3ccc(Cl)cc3c1=O)Cc1ccccc1-2	-7.8
COc1cc(OC)c2c(C)c(Cl)c(=O)oc2c1	-3.3
CC(C)C(=O)Nc1ccc(S(=O)(=O)N2CC3CC(C2)c2cccc(=O)n2C3)cc1 (stereo not drawn)	0.3
CCCCCC#CCC#CCC#CCC#CCCCC(=O)O	-1.6
CC(C)OC(=O)CC12CN3CN(C1)CC(CC(=O)OC(C)C)(C3)C2=O	6.1

* * *

# ASSAYED SYSTEM: Lethal factor (Bacillus anthracis) (UniProt P15917)
# Sequence (P15917 whole entry, looked up): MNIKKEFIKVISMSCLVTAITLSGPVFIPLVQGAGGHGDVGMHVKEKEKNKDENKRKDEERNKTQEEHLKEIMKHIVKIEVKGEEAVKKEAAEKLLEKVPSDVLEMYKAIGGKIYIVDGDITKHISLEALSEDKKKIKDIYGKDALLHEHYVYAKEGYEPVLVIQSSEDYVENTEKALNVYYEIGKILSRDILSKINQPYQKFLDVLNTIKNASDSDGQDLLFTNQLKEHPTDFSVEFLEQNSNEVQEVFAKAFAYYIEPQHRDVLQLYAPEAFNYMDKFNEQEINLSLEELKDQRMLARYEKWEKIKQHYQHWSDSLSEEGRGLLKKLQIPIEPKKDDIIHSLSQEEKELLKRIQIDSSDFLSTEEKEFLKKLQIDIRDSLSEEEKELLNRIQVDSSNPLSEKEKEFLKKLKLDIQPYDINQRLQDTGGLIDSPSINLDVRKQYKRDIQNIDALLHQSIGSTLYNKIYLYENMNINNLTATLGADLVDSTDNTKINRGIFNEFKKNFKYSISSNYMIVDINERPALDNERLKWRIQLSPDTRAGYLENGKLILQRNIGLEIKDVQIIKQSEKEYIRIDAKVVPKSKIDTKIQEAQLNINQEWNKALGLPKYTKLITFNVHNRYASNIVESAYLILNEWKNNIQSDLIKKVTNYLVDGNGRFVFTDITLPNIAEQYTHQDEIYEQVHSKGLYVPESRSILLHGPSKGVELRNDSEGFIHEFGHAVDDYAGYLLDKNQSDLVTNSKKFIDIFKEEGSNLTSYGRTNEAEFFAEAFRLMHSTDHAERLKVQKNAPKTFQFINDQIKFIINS
# TEST DETAILS: Lethal factor protease inhibitors, Bacillus anthracis, multiplex microsphere cleavage assay, validation set (AID 588461)
# CONDITION INFO: flow cytometry, at 10 µM, hits give high values
Reported inhibition values are given for each entry in this list.
MEASUREMENT TYPE: inhibition (%)

COMPOUND	ASSAYED SYSTEM	RECORDED NUMBER
Nc1nnc(-c2cccc(Cl)c2Cl)c(N)n1	Lethal factor (Bacillus anthracis) (UniProt P15917)	-5.9
COC(=O)c1cc(=O)c2ccc(OC)cc2o1	Lethal factor (Bacillus anthracis) (UniProt P15917)	2.2
CN1C2CCC1CC(OC(=O)CCN1CCCC1)C2 (configuration not stated)	Lethal factor (Bacillus anthracis) (UniProt P15917)	1.5
O=C(CCCN1CCC2(CC1)C(=O)NCN2c1ccccc1)c1ccc(F)cc1	Lethal factor (Bacillus anthracis) (UniProt P15917)	0.5
COc1ccc(C(CC(=O)N2CCOCC2)C(C)C)cc1 (configuration not stated)	Lethal factor (Bacillus anthracis) (UniProt P15917)	-8.6
Cc1ccc2c(c1)C1CN(C)CCC1N2C(=O)Nc1cccc(Cl)c1 (configuration not stated)	Lethal factor (Bacillus anthracis) (UniProt P15917)	0
COc1ccc(C(=O)Nc2ncc3c(n2)CC(C)CC3=O)cc1 (configuration not stated)	Lethal factor (Bacillus anthracis) (UniProt P15917)	-4.5
CC[N+](C)(CC)CCOC(=O)C(O)(c1ccccc1)C1CCCCC1 (configuration not stated)	Lethal factor (Bacillus anthracis) (UniProt P15917)	-1.1
O=C(Nc1ccc(F)c([N+](=O)[O-])c1)c1ccc2c(c1)OCCO2	Lethal factor (Bacillus anthracis) (UniProt P15917)	-7.5
CCc1cc2c(C)cc(=O)oc2cc1OC(=O)C1CCCN1C(=O)OC(C)(C)C (configuration not stated)	Lethal factor (Bacillus anthracis) (UniProt P15917)	-1.1
CC(C(=O)O)c1ccc(N2Cc3ccccc3C2=O)cc1 (configuration not stated)	Lethal factor (Bacillus anthracis) (UniProt P15917)	-4.3
COc1ccc2c(c1)[N+](C)(C)C(C)(C)C=C2C	Lethal factor (Bacillus anthracis) (UniProt P15917)	1.6

* * *

Reported aptamer binding inhibition values are given for each entry in this list.
# ASSAYED SYSTEM: Beta-adrenergic receptor kinase 1 (Homo sapiens) (UniProt P25098)
# TEST DETAILS: GRK2 binders displacing RNA aptamer, biochemical, validation, human GRK2, bead flow cytometry (AID 488806)
# CONDITION INFO: bead-bound GRK2, FAM-aptamer displacement, at 10 µM, hits give high values

MOLECULE	RESULT UNIT	aptamer binding inhibition
COc1ccccc1CN1CCCCC1c1cccnc1 (centres undefined)	%	6
CC/C(=C\C=C\[C@@H]1C=C[C@@H]2CCC[C@H]2[C@@H]1C(=O)c1ccc[nH]1)[C@@H]1O[C@@H]([C@@H](C)C(=O)O)CC[C@@H]1C	%	2
Cc1cc2c(C(C)C)c(O)c(O)c(C=O)c2c(O)c1-c1c(C)cc2c(C(C)C)c(O)c(O)c(C=O)c2c1O	%	5
C=CC1CN2CCC1CC2[C@@H](OC(=O)c1ccc(OC)cc1)c1ccnc2ccccc12 (some centres undefined)	%	-2

* * *

# ASSAYED SYSTEM: Botulinum neurotoxin type A (Clostridium botulinum) (UniProt P0DPI0)
# Sequence (P0DPI0 whole entry, looked up): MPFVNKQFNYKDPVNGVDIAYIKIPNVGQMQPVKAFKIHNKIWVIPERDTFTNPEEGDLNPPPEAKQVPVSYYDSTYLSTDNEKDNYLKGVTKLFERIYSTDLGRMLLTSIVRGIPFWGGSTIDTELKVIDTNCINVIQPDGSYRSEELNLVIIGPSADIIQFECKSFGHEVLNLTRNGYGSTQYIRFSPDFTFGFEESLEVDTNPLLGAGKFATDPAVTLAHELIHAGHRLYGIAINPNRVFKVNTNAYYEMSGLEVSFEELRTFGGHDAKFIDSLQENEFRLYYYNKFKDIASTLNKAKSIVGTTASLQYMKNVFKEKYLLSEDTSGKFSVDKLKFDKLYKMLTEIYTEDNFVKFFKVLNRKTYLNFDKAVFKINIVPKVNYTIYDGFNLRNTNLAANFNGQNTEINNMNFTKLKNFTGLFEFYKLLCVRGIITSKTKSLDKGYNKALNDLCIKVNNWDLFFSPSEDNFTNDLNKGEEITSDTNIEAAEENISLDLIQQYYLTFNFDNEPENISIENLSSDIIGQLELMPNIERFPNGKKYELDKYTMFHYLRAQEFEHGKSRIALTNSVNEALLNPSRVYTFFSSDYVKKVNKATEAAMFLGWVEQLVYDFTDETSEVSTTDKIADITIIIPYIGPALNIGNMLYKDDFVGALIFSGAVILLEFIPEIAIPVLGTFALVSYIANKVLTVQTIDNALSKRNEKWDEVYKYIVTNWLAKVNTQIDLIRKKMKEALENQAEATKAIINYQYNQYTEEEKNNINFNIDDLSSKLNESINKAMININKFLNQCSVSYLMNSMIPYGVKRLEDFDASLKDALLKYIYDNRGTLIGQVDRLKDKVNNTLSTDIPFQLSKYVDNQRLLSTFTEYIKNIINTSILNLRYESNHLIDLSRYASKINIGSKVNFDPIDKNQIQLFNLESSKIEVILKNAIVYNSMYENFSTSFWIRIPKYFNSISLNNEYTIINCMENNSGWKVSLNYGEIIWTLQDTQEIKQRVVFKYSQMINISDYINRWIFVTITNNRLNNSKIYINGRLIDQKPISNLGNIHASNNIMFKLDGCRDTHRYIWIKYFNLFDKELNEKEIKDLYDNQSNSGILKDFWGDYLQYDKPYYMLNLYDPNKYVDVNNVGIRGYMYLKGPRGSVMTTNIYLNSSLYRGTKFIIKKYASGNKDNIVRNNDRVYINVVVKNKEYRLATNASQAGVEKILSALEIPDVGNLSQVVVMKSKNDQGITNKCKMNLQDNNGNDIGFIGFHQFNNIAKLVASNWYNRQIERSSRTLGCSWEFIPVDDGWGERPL
# TEST DETAILS: BoNT/A light chain protease inhibitors, biochemical, multiplex microsphere flow cytometry, validation set (AID 588460)
# CONDITION INFO: at 10 µM, hits give high values
Reported inhibition values are given for each entry in this list.

MOLECULE	inhibition, %
COc1ccc(-c2coc3c(CN4CCOCC4)c(O)ccc3c2=O)cc1	0.6
CCOC(=O)c1oc2cc(OCC(N)=O)ccc2c(=O)c1-c1ccc(OC)c(OC)c1	1.1
c1cnc2c(c1)ccc1ncccc12	-0.7
Cc1cc(OCc2cc(C(=O)O)oc2C)c2c3c(c(=O)oc2c1)CCCC3	-0.5
O=C(O)C(O)c1ccccc1 (stereo not given)	-1.4
Cc1ccc2c(c1)C1CN(C)CCC1N2C(=O)Nc1cccc(Cl)c1 (stereo not given)	-0.1
OCCN(CCO)c1nc(N2CCCCC2)c2nc(N(CCO)CCO)nc(N3CCCCC3)c2n1	0.9
Cc1ccccc1NC(=O)C1c2ccccc2Oc2ccccc21	-0.3
Cc1nc2cc3ccccc3cc2c(=O)[nH]1	1.5
Cc1ccc(-n2ncc3c(Nc4cccc(C(=O)O)c4)ncnc32)cc1	-1.1
CC12CC[C@H]3[C@@H](CCC4(O)C[C@H](O)CCC34/C=N/NC(=O)Cc3ccccc3)C1(O)CCC2C1=CC(=O)OC1 (stereo not given in full)	-0.2
COc1ccc(CNC(=O)c2c(O)c3cccc4c3n(c2=O)CCC4)cc1	-0.1
O=C(NC1CC1)C1CCN(C2CCN(C(=O)Cc3ccc(F)cc3)CC2)CC1	-0.6
CC1COc2c(N3CCN(C)CC3)c(F)cc3c(=O)c(C(=O)O)cn1c23 (stereo not given)	-0.3
CCCCC[C@H](O)/C=C/[C@@H]1[C@@H](C/C=C\CCCC(=O)OC)[C@@H](O)C[C@H]1O	-1
COC(=O)[C@@H](N)CS	-1.9
O=C(CCc1ccccc1)Nc1ccccc1C(F)(F)F	-0.1
Cc1ccc(C2CC(c3cccs3)=NN2C(=O)c2ccco2)o1 (stereo not given)	-0.5
CC(=O)OCC(=O)[C@@]12OC3(CCCC3)O[C@@H]1C[C@H]1[C@@H]3CCC4=CC(=O)C=C[C@]4(C)[C@@]3(F)[C@@H](O)C[C@@]12C	-0.9
Cc1nc2c(c3c1[nH]c1ccccc13)C(=O)CC(C)(C)C2	0.3
C=C1CC[C@@]2(O)[C@H]3Cc4ccc(O)c5c4[C@@]2(CCN3CC2CC2)[C@H]1O5	-0.2
Cc1cnc(C(=O)NCCc2ccc(S(=O)(=O)NC(=O)NC3CCCCC3)cc2)cn1	-0.2
COC(=O)c1cc(-c2ccc(C)o2)nc2ccccc12	2
O=C(O)c1ccccc1C(=O)OCCCCOC(=O)c1ccccc1C(=O)O	-0.6
COc1cccc(N2CC(O)=C(c3nc4ccccc4c(=O)[nH]3)C2=N)c1	-1.1
C[C@]12CC[C@@H]3c4ccc(OS(=O)(=O)O)cc4CC[C@H]3[C@@H]1CCC2=O	-0.2
O=C1OC(c2ccc(O)cc2)(c2ccc(O)cc2)c2ccccc21	-0.8
Cc1ccc2c(CN3CCN(Cc4ccc5c(c4)OCO5)CC3)cc(=O)oc2c1C	0.6
CC(C)CC(=O)N(Cc1ccc(F)cc1)C1CCS(=O)(=O)C1 (stereo not given)	3.7
COc1cc2c(cc1NCc1ccc3c(c1)OCO3)oc1ccccc12	-0.9
C[N+](C)(C)CCOP(=O)([O-])OC[C@H](O)CO	-0.4
CN(C)c1cc(NC(=O)CN2CCOCC2)c2ccccc2n1	-1.5
O=C(CNC(=O)OCc1ccccc1)Oc1cc2oc(=O)cc(-c3ccccc3)c2cc1Cl	0.9
COC(=O)c1[nH]c2ccc(F)cc2c1NC(=O)C1=COCCO1	0.8
C[C@]12CC[C@@H]3c4ccc(O)cc4CC[C@H]3[C@@H]1CC[C@@H]2O	1.1
Cc1ccc(O)c(CCc2ccccc2)n1	0.5
Cc1ccc(S(=O)(=O)NC(=O)NN2CCCCCC2)cc1	-1.6
CC(CCc1ccccc1)NC(=O)/C=C/c1ccccc1 (stereo not given)	0.4
CC1(C)c2ccccc2N2CC(=O)N(CC(N)=O)C21C (stereo not given)	-1.4
N#Cc1cc2c([nH]c1=O)CCCC2	-0.6
Cc1cccc2c1CC(C)(C)N/C2=C\C(N)=O	1
CC(=O)N1c2ccccc2C(C)=CC1(C)C	-0.7
O=C(/C=C/c1ccc(F)cc1)NC(=S)N1CCCCC1c1cccnc1 (stereo not given)	-0.6
Cc1cc(OCC(=O)C(C)(C)C)c2c(C)c(C)c(=O)oc2c1	0.5
Cc1ccc(-c2nnc(-c3ccc4c(c3)OCO4)o2)cc1	-0.1
